Biological target: Cellular tumor antigen p53 (Homo sapiens) (UniProt P04637)
Sequence (P04637 whole entry, looked up): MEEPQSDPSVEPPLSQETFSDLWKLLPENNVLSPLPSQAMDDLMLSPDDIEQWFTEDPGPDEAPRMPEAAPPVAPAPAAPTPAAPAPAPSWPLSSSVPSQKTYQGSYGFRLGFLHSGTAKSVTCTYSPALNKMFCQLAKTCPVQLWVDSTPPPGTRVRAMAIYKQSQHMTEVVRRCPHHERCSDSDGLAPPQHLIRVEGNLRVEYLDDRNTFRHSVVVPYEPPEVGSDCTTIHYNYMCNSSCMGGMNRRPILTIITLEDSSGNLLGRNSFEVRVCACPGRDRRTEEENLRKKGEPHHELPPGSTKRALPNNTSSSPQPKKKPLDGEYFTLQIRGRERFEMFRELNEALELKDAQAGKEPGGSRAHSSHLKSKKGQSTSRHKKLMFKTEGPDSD
Test: TOX21_p53_BLA_p2_ratio: Tox21 HCT-116 p53 Agonism Beta-lactamase Assay, Ratio, Phase 2 (AID 2283592)
Protocol: TOX21_p53_BLA_p2 is a cell-based, single-readout assay that uses HCT116, a human intestinal cell line, […] in a 1536-well plate.TOX21_p53_BLA_p2_ratio is an assay readout measuring reporter gene via receptor activity and designed using inducible reporter (beta lactamase induction) detected with GAL4 b-lactamase reporter gene. […] This assay endpoint, TOX21_p53_BLA_p2_ratio, was analyzed in the positive analysis fitting direction relative to DMSO as the negative control and baseline of activity. […]
Results filed as inconclusive are left out. Activity calls are given as the source filed them. The calls were made as follows: active = hit-call score of the fitted dose curve at least 0.9, where 1 is the maximum; inconclusive = response in the unintended direction; inactive = score below 0.9.
outcome.measure: AC50

molecule: Brc1ccc(Oc2ccc(Br)cc2Br)c(Br)c1
outcome.measure: AC50
result.value: inactive

molecule: O=C(O)/C=C/C(=O)O
outcome.measure: AC50
result.value: inactive

molecule: COC(C)(C)CCC[C@H](C)C/C=C/C(C)=C/C(=O)OC(C)C
outcome.measure: AC50
result.value: inactive

molecule: CC(=O)Nc1cc([As](=O)(O)O)ccc1O
outcome.measure: AC50
result.value: inactive

molecule: C=CC(=O)OCCCCOC(=O)C=C
outcome.measure: AC50
result.value: 49.6 µM (active)

molecule: C[C@]12C=CC(=O)C=C1CC[C@@H]1[C@@H]2CC[C@@]2(C)[C@H]1CC[C@]2(C)O
outcome.measure: AC50
result.value: inactive

molecule: CCCSc1cc(OC)c(CCN)cc1OC
outcome.measure: AC50
result.value: 26.1 µM (active)

molecule: O=C/C=C/c1ccco1
outcome.measure: AC50
result.value: inactive

molecule: [CH3][Hg][Cl]
outcome.measure: AC50
result.value: 44.8 µM (active)

molecule: c1ccc2cc3c(cc2c1)-c1cccc2cccc-3c12
outcome.measure: AC50
result.value: 3.24 µM (active)

molecule: CC(Cc1ccccc1)NC=O (centres undefined)
outcome.measure: AC50
result.value: inactive

molecule: FC(F)OC(F)(F)C(F)Cl (centres undefined)
outcome.measure: AC50
result.value: inactive

molecule: O=[N+]([O-])c1ccc([As](=O)(O)O)cc1
outcome.measure: AC50
result.value: inactive

molecule: CNCC(=O)c1ccc(O)c(O)c1
outcome.measure: AC50
result.value: inactive

The origin of these recorded values is PubChem BioAssay (EPA / NIEHS).
